Collected pIC50 values appear next to each entry.
System under test: D816V Kit (Homo sapiens, UniProt P10721, D816V)
Sequence (P10721 26-976 D816V): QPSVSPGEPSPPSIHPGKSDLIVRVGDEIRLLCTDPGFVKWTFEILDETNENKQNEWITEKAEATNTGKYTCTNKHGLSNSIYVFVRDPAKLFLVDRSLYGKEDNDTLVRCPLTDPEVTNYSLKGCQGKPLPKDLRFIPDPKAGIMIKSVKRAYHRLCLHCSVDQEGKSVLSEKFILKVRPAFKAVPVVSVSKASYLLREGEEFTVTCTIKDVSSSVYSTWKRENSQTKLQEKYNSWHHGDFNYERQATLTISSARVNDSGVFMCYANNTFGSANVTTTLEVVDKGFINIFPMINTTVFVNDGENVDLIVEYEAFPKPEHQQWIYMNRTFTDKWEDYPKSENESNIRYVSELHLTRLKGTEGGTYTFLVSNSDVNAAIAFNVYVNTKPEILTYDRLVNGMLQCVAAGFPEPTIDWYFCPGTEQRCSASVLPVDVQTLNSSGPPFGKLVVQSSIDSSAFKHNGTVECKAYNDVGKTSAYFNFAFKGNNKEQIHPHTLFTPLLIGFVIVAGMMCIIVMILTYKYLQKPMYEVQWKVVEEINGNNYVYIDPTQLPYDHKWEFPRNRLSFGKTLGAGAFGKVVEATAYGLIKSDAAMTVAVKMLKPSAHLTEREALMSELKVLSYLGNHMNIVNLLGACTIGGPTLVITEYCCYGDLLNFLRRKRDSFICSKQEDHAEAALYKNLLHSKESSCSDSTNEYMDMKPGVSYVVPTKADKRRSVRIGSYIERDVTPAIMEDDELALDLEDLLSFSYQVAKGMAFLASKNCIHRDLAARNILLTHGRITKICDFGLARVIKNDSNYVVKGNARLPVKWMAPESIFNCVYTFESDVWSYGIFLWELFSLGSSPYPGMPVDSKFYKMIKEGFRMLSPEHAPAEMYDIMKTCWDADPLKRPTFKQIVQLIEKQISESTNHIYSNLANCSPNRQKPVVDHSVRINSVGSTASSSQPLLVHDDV
Protocol text: Kit D816V assay at Km (Caliper electrophoretic mobility shift)
Setup conditions: 15 uM ATP, 25 C, 90 minutes
Text: In order to assess the activity of chemical compounds against the relevant kinase of interest, the Caliper LifeSciences electrophoretic mobility shift technology platform is used. […] At the end of the reaction, the mix of phosphorylated (product) and non-phosphorylated (substrate) peptides are passed through the microfluidic system of the Caliper EZ Reader 2, under an applied potential difference. […] As the pools pass a LEDS within the instrument, these pools are detected and resolved as separate peaks. […]
pIC50: −log10 of the molar value.

molecule="c1ccc(Cc2cnc(N3CCN(c4ncnc(Nc5cnn(C[C@H]6COCCO6)c5)n4)CC3)nc2)cc1 [Compound 133]" result="> 9.00"
molecule="Oc1nc(N2CCN(c3ncnc(Nc4cnn(CC5CCNCC5)c4)n3)CC2)ncc1Cc1ccccc1 [Compound 179]" result="> 9.00"

Look up pIC50: CCN1CCO[C@H](Cn2cc(Nc3ncnc(N4CCN(c5ncc(Cc6ccccc6)cn5)CC4)n3)cn2)C1 [Compound 241]
8.00 to 9.00

Sample c1ccc(Cc2cnc(N3CCN(c4ncnc(Nc5cnn(CC6CCOC6)c5)n4)CC3)nc2)cc1 (stereo not shown) [Compound 86] — what was its pIC50?
> 9.00

pIC50 lookup needed for c1ccc(Cc2cnc(N3CCN(c4ncnc(Nc5cnn(CC6CCNCC6)c5)n4)CC3)nc2)cc1 [Compound 116] , thanks.
> 9.00

Name the reported pIC50 value associated with the molecule OCCN1CCc2ccc(Nc3ncnc(N4CCN(c5ncc(Cc6ccccc6)cn5)CC4)n3)cc2C1 [Compound 163]
> 9.00

Quick one: pIC50 of COc1cc(N2CCNCC2)ccc1Nc1ncnc(N2CCN(c3ncc(Cc4ccccc4)cn3)CC2)n1 [Compound 230] ?
8.00 to 9.00

src = patent US9334263B2
